Measured values drawn from paper PMC6001238 for this set.

Below, each entry is listed with its recorded IC50.
Tested on: L1210, CEM and HeLa cell lines
Procedure summary: Cytostatic activity, average or summary over L1210, CEM and HeLa
Format: cell-based
Experimental conditions: average of L1210, CEM and HeLa; read-out: Toxicity (IC50) Average
Measure name: IC50 (µM)

{"Molecule": "CNC(CC(C)C)C(=O)NC1C(=O)NC(CC(N)=O)C(=O)NC2C(=O)NC3C(=O)NC(C(=O)NC(C(=O)NCCCNC(=O)c4ccc5cc(O)ccc5c4)c4cc(O)cc(O)c4-c4cc3ccc4O)C(O)c3ccc(c(Cl)c3)Oc3cc2cc(c3OC2OC(CO)C(O)C(O)C2OC2CC(C)(N)C(O)C(C)O2)Oc2ccc(cc2Cl)C1O (stereo not drawn) [Vanc-30]", "Measure name": "IC50", "Unit descriptor": "µM", "Limit qualifier": "=", "Assay result": 182}
{"Molecule": "CN[C@H](CC(C)C)C(=O)N[C@H]1C(=O)N[C@@H](CC(N)=O)C(=O)N[C@H]2C(=O)N[C@H]3C(=O)N[C@H](C(=O)N[C@H](C(=O)NCCNC(=O)/C=C/c4ccc(OC)cc4)c4cc(O)cc(O)c4-c4cc3ccc4O)[C@H](O)c3ccc(c(Cl)c3)Oc3cc2cc(c3O[C@@H]2O[C@H](CO)[C@@H](O)[C@H](O)[C@H]2O[C@H]2C[C@](C)(N)[C@H](O)[C@H](C)O2)Oc2ccc(cc2Cl)[C@H]1O [Vanc-36]", "Measure name": "IC50", "Unit descriptor": "µM", "Limit qualifier": "=", "Assay result": 196}
{"Molecule": "CN[C@H](CC(C)C)C(=O)N[C@H]1C(=O)N[C@@H](CC(N)=O)C(=O)N[C@H]2C(=O)N[C@H]3C(=O)N[C@H](C(=O)N[C@H](C(=O)NCCNC(=O)/C=C/c4cccc(OC)c4)c4cc(O)cc(O)c4-c4cc3ccc4O)[C@H](O)c3ccc(c(Cl)c3)Oc3cc2cc(c3O[C@@H]2O[C@H](CO)[C@@H](O)[C@H](O)[C@H]2O[C@H]2C[C@](C)(N)[C@H](O)[C@H](C)O2)Oc2ccc(cc2Cl)[C@H]1O [Vanc-23]", "Measure name": "IC50", "Unit descriptor": "µM", "Limit qualifier": ">", "Assay result": 250}

###

Test system: human T-lymphocyte (CEM) cells
Procedure summary: Cytostatic activity, CEM cell proliferation
Assay type: cell-based
Experimental conditions: mean ± SD of three experiments; highest concentration tested 250 µM; 3 days; read-out: Toxicity (IC50) CEM
Below, each entry is listed with its recorded IC50.
Measure name: IC50

{"Compound": "CNC(CC(C)C)C(=O)NC1C(=O)NC(CC(N)=O)C(=O)NC2C(=O)NC3C(=O)NC(C(=O)NC(C(=O)NCCCNC(=O)c4ccc5cc(NS(=O)(=O)c6ccc(C)cc6)ccc5c4)c4cc(O)cc(O)c4-c4cc3ccc4O)C(O)c3ccc(c(Cl)c3)Oc3cc2cc(c3OC2OC(CO)C(O)C(O)C2OC2CC(C)(N)C(O)C(C)O2)Oc2ccc(cc2Cl)C1O (stereo not drawn)", "Assay result": "≥ 250 µM"}
{"Compound": "CCCCCc1ccc(C(=O)NCCCNC(=O)C2NC(=O)C3NC(=O)C(NC(=O)C4NC(=O)C(CC(N)=O)NC(=O)C(NC(=O)C(CC(C)C)NC)C(O)c5ccc(c(Cl)c5)Oc5cc4cc(c5OC4OC(CO)C(O)C(O)C4OC4CC(C)(N)C(O)C(C)O4)Oc4ccc(cc4Cl)C3O)c3ccc(O)c(c3)-c3c(O)cc(O)cc32)cc1 (stereo not drawn)", "Assay result": "36 µM"}
{"Compound": "CNC(CC(C)C)C(=O)NC1C(=O)NC(CC(N)=O)C(=O)NC2C(=O)NC3C(=O)NC(C(=O)NC(C(=O)NCCCNC(=O)c4nc5ccccc5[nH]4)c4cc(O)cc(O)c4-c4cc3ccc4O)C(O)c3ccc(c(Cl)c3)Oc3cc2cc(c3OC2OC(CO)C(O)C(O)C2OC2CC(C)(N)C(O)C(C)O2)Oc2ccc(cc2Cl)C1O (stereo not drawn)", "Assay result": "> 250 µM"}
{"Compound": "CNC(CC(C)C)C(=O)NC1C(=O)NC(CC(N)=O)C(=O)NC2C(=O)NC3C(=O)NC(C(=O)NC(C(=O)NCC(=O)Nc4ccc(-c5cn(-c6ccc(OC)cc6)nn5)cc4)c4cc(O)cc(O)c4-c4cc3ccc4O)C(O)c3ccc(c(Cl)c3)Oc3cc2cc(c3OC2OC(CO)C(O)C(O)C2OC2CC(C)(N)C(O)C(C)O2)Oc2ccc(cc2Cl)C1O (stereo not drawn)", "Assay result": "17 µM"}
{"Compound": "CN[C@H](CC(C)C)C(=O)N[C@H]1C(=O)N[C@@H](CC(N)=O)C(=O)N[C@H]2C(=O)N[C@H]3C(=O)N[C@H](C(=O)N[C@H](C(=O)NCC(=O)Nc4ccc(Nc5ccccc5)cc4)c4cc(O)cc(O)c4-c4cc3ccc4O)[C@H](O)c3ccc(c(Cl)c3)Oc3cc2cc(c3O[C@@H]2O[C@H](CO)[C@@H](O)[C@H](O)[C@H]2O[C@H]2C[C@](C)(N)[C@H](O)[C@H](C)O2)Oc2ccc(cc2Cl)[C@H]1O", "Assay result": "> 250 µM"}
{"Compound": "CNC(CC(C)C)C(=O)NC1C(=O)NC(CC(N)=O)C(=O)NC2C(=O)NC3C(=O)NC(C(=O)NC(C(=O)NCCNC(=O)C=Cc4ccccc4)c4cc(O)cc(O)c4-c4cc3ccc4O)C(O)c3ccc(c(Cl)c3)Oc3cc2cc(c3OC2OC(CO)C(O)C(O)C2OC2CC(C)(N)C(O)C(C)O2)Oc2ccc(cc2Cl)C1O (stereo not drawn)", "Assay result": "> 250 µM"}
